Data origin: patent US10689394B2

Molecular target: binding between ALS-related mutant SOD1 (Flag-SOD1 G93A) and Derlin-1 (Derlin-1-HA) (Homo sapiens, UniProt P00441+Q9BUN8, G94A)
Construct: expressed in transfected cells; host or cells: HEK293A
Sequence (P00441 whole entry G94A, species assumed): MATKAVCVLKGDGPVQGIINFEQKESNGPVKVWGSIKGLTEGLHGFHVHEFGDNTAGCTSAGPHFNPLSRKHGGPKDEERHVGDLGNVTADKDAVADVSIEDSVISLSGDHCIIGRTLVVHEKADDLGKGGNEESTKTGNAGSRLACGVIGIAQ
Sequence (Q9BUN8 whole entry, species assumed, stated change not applied): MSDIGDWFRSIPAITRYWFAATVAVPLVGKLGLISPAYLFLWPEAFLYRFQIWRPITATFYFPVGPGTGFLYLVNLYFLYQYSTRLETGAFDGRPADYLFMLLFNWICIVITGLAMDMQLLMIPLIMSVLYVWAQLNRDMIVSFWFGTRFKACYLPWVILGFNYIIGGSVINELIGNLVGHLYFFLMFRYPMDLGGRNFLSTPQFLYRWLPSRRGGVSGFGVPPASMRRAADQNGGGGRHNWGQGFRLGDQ
Test: Cell-based co-immunoprecipitation assay of mutant SOD1 (G93A)-Derlin-1 binding
Design: key: a compound exhibiting no inhibitory activity is set at 0; a compound exhibiting inhibitory activity is set at 1; a compound exhibiting significant inhibitory activity is set at 2; a compound having higher inhibitory activity than the compound of Example 1 is set at 3
Conditions: assay concentration 20 μM; HEK293A cells overexpressing Flag-SOD1 G93A and Derlin-1-HA
property measured: Activity value (score)

Would you kindly share the measured Activity value (score) for "C=CCN(C(=O)c1sc2nc(-c3cccnc3)ccc2c1N)c1ccc(I)cc1" ?
2

Then "C#CCN(C(=O)c1sc2nc(-c3cccnc3)ccc2c1N)c1ccccc1" ?
2

Same question for "C=CCN(C(=O)c1sc2nc(-c3cccnc3)ccc2c1N)c1cccc(S(F)(F)(F)(F)F)c1" please.
2

Now this one: "C=CCN(C(=O)c1sc2nc(-c3cccnc3)ccc2c1N)c1ccc(F)cc1F"
2

Same read-out for "Cc1cccc(C)c1NC(=O)c1sc2nc(-c3cccnc3)ccc2c1N" ?
1

Then what about the molecule "Nc1c(C(=O)Nc2ccncc2)sc2nc(-c3ccncc3)ccc12" ?
1

I: Nc1c(C(=O)N(Cc2ccccc2)c2ccccc2)sc2nc(-c3cccnc3)ccc12
II: Nc1c(C(=O)Nc2ccncc2)sc2nc(-c3cncnc3)ccc12
Field: lower recorded Activity value (score) (choose I or II ) Refer to your chosen item by its label in the answer.
II
